Source listed as patent US9732075B2.

molecular target: human orexin-2 receptor (Homo sapiens (Human), UniProt O43614); assay: In vitro assay: intracellular calcium measurements (FLIPR), antagonistic activity; settings: CHO cells expressing human orexin-2 receptor, orexin-A agonist, geometric mean, read-out: IC50 Ox2
Sequence (O43614 whole entry): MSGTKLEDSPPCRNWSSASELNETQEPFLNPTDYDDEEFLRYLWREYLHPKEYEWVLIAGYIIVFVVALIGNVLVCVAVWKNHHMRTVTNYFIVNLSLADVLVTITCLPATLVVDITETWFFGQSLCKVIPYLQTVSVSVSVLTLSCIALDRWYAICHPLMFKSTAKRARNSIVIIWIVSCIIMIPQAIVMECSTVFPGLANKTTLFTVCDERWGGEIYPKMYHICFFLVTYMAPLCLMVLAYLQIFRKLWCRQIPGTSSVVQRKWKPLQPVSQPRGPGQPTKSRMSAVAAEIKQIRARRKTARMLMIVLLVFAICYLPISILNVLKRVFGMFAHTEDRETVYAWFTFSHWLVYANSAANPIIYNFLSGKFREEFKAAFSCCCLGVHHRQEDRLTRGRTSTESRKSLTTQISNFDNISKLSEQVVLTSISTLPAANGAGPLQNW
reported_metric: IC50 (nM)

Reference set (5 entries):
C=C1CC(c2nc3c(Br)cccc3[nH]2)N(C(=O)c2nc(C3CC3)sc2-c2cccc(C)c2)C1 (centres unmarked) :: 3
Cc1ccc(-c2ccc(F)cc2C)c(C(=O)N2CCC[C@@]2(C)c2nc3cc(C)c(C)cc3[nH]2)c1 :: 1290
C=C1C[C@@H](c2nc3cc(OC)ccc3[nH]2)N(C(=O)c2nc(C)sc2-c2cccc(Cl)c2)C1 :: 7
CSc1cccc2nc([C@@H]3CCCN3C(=O)c3cc(C)ccc3-n3nccn3)[nH]c12 :: 23
COc1cc2nc([C@]3(C)CCCN3C(=O)c3cc(C)ccc3-n3nccn3)[nH]c2cc1OC :: 18

[A] COc1ccc(-n2nccn2)c(C(=O)N2CCC[C@H]2c2nc3cccc(SC)c3[nH]2)c1F
[B] C[C@@]1(c2nc3cc(C(F)(F)F)ccc3[nH]2)CCCN1C(=O)c1cc(C(F)(F)F)ccc1-n1nccn1
Q: Decide: A or B , by lowest recorded IC50. Respond using the label that marks the chosen record.
Result: A
